Measured IC50, listed per entry for reference.
Biological target: GPR6 (Homo sapiens)
Construct: expressed in transfected cells; host or cells: CHO cells
Sequence (P46095 whole entry): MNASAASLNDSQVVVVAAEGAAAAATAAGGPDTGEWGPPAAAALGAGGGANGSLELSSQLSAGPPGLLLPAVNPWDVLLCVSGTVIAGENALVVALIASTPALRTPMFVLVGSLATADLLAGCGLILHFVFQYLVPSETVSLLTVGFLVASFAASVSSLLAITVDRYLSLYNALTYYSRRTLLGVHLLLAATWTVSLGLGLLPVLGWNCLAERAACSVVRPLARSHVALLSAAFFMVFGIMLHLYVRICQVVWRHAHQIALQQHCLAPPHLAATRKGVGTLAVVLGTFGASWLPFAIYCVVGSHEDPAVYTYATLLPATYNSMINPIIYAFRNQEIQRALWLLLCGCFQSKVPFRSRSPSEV
Test: GPR6 antagonist functional cAMP assay (LANCE Ultra cAMP TR-FRET, CHO cells stably expressing GPR6)
Assay type: cell-based
Settings: procedure of Example 24
property-name: IC50

                                    compound                  tgt            result
 0  COc1ccc(C(=O)N2CCN(c3nc4c(nc3-c3cnn(C)c3)CN(C(C)=O)CC4)CC2)c(OC)c1 [Compound 287]  GPR6 (Homo sapiens)        ≥ 30000 nM
 1  CC(C)(O)[C@](C)(O)c1cc2nc(-c3cnn(C4CC4)c3)c(N3CCN(Cc4ccc(F)cc4F)CC3)nc2cn1 [Compound 683]  GPR6 (Homo sapiens)    100 to 1000 nM
 2  CC(C)(O)[C@](C)(O)c1cc2nc(N3CCN(Cc4ccc(F)cc4F)CC3)c(-c3cnn(CF)c3)nc2cn1 (single isomer, unassigned) [Compound 649]  GPR6 (Homo sapiens)    100 to 1000 nM
 3  COc1ccc(CN2CCN(c3nc4c(nc3-c3cnn(C)c3)CN(C(C)=O)CC4)CC2)c(OC)c1 [Compound 322]  GPR6 (Homo sapiens)        ≥ 30000 nM
 4  Cn1cc(-c2nc3cnc([C@H]4C[C@@H]4C(=O)O)cc3nc2N2CCC(Oc3ccc(F)cc3F)CC2)cn1 (single isomer, unassigned) [Compound 737]  GPR6 (Homo sapiens)  1000 to 30000 nM
 5  CC(C)(O)C(=O)c1cc2nc(-c3cnn(C(F)F)c3)c(N3CCN(Cc4ccc(F)cc4F)CC3)nc2cn1 [Compound 620]  GPR6 (Homo sapiens)    100 to 1000 nM
 6  CC(C)(O)C(C)(O)c1cc2nc(-c3cnn(CF)c3)c(N3CCC(Oc4ccc(F)cc4F)CC3)nc2cn1 (stereo not shown) [Compound 661]  GPR6 (Homo sapiens)    100 to 1000 nM
 7  CC(=O)N1CCc2nc(N3CCN(Cc4cccc(F)c4F)CC3)c(-c3cnn(C)c3)nc2C1 [Compound 320]  GPR6 (Homo sapiens)  1000 to 30000 nM
 8  CC(C)(O)[C@@](C)(O)c1cc2nc(-c3cnn(C4CC4)c3)c(N3CCN(Cc4ccccc4F)CC3)nc2cn1 (single isomer, unassigned) [Compound 776]  GPR6 (Homo sapiens)    100 to 1000 nM
 9  COC1CCC(c2nc3c(nc2N2CCC(Oc4ccc(F)cc4F)CC2)CCN(C(C)=O)C3)CC1 (stereo not shown) [Compound 373]  GPR6 (Homo sapiens)    100 to 1000 nM
10  CC(C)(O)[C@@H](O)c1cc2nc(-c3cnn(CF)c3)c(N3CCN(Cc4ccccc4F)CC3)nc2cn1 (single isomer, unassigned) [Compound 713]  GPR6 (Homo sapiens)    100 to 1000 nM
11  CC(C)(O)[C@@H](O)c1cc2nc(N3CCN(Cc4ccccc4F)CC3)c(-c3cnn(C(F)F)c3)nc2cn1 (single isomer, unassigned) [Compound 613]  GPR6 (Homo sapiens)    100 to 1000 nM
12  CC(C)(O)[C@H](O)c1cc2nc(N3CCC(=Cc4ccc(F)cc4F)CC3)c(-c3cnn(C4CC4)c3)nc2cn1 (single isomer, unassigned) [Compound 770]  GPR6 (Homo sapiens)    100 to 1000 nM
